target: Full-length recombinant human EGLN-3 (His-MBP-TVMVEGLN-3 fusion) (Homo sapiens (Human), UniProt Q9H6Z9); test: EGLN-3 enzyme activity assay (MALDI-TOF MS); assay type: biochemical; settings: recombinant human EGLN-3 fusion; HIF-1α peptide 556-574 substrate; read-out: EGLIN3 IC50
Sequence (Q9H6Z9 whole entry, the tested form may be a part): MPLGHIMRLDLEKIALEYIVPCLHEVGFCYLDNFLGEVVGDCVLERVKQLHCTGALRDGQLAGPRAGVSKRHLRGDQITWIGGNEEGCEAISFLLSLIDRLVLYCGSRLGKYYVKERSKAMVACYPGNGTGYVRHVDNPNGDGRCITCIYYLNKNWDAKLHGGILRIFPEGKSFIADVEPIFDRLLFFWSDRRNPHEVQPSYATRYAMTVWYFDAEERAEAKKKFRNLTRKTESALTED
outcome_measure: IC50 (nM)
Report as a plain number; the unit nM is understood.

[in] Which IC50 value is on record for O=C(O)CNC(=O)c1ncc(-c2ccc(Cl)cc2)cc1O ?
[out] 83

Where do these numbers come from? They come from patent US9598370B2.
